TARGET UNDER TEST: T1, hu-IL-36γ (human IL-36γ, N-terminally truncated active form S18-D169) (human, UniProt Q9NZH8 18-169)
T1 sequence: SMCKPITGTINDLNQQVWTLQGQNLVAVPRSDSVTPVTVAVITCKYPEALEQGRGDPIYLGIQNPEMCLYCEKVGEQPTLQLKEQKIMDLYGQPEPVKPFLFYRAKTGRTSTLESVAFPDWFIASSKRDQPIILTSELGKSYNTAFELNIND
PROCEDURE TEXT: cell-based or functional assay
OBSERVED PROPERTY: IC50, HEK-Blue IL-36R SEAP reporter assay (nM)
Numbers only here, please. The scale is nM.

Supply IC50, HEK-Blue IL-36R SEAP reporter assay value. Item: mAb1.0 recombinant human IgG1 (antibody, V domains shown) VH: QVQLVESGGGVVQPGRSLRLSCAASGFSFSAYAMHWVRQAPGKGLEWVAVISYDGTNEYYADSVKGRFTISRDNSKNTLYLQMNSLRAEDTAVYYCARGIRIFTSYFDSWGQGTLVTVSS VL: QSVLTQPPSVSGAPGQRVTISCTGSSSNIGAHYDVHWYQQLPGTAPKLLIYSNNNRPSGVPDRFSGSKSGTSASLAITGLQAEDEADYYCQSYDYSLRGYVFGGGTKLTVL 5.3
